List of relative IC50 values.
- Test system: S1507-2
- ASSAY_SUMMARY: relative IC50 (inflection point of fitted dose-response curve, CellTox-Green cytotoxicity, 72 h; top asymptote may be below 50%); higher = less potent
Respond with the bare value in nM.

# count of solved cases: 2
[[record]]
input_smiles = "CC[C@@]1(O)C(=O)OCc2c1cc1n(c2=O)Cc2cc3ccccc3nc2-1"
assay_metric = "relative IC50"
reported_value = 244

[[record]]
input_smiles = "CC(C)C[C@H](NC(=O)[C@H](CCc1ccccc1)NC(=O)CN1CCOCC1)C(=O)N[C@@H](Cc1ccccc1)C(=O)N[C@@H](CC(C)C)C(=O)[C@@]1(C)CO1"
assay_metric = "relative IC50"
reported_value = 25.7


// switching to the query molecule
QUERY: # return recorded relative IC50 for input O=C(Cc1ccc(-c2ccc(OCCN3CCOCC3)cc2)cn1)NCc1ccccc1
RESULT: 30.2
